test system: Neutrophil; experiment: Inhibition of PMA-induced oxidative burst in human neutrophils by APF assay; format: functional, cell-based
Record form. Attribute: IC50. Fill in for each entry.
State the value with its unit after it.

Per the record, O=c1c(O)c(-c2ccc(O)c(O)c2)oc2cc(O)cc(O)c12 has IC50 of 1800 nM

IC50 in this record for O=c1cc(-c2ccc(O)c(O)c2)oc2c(Cl)c(O)c(Cl)c(O)c12 : 7200 nM

Looking up O=c1c(Cl)c(-c2ccc(O)c(O)c2)oc2c(Cl)c(O)cc(O)c12 , I see its IC50 listed as 1800 nM

Documented IC50 of O=c1cc(-c2ccc(O)c(O)c2)oc2cc(O)cc(O)c12 : 2200 nM

# IC50 of O=c1cc(-c2ccc(O)c(O)c2)oc2c(Cl)c(O)cc(O)c12 = 2600 nM

Entry O=c1c(Cl)c(-c2ccc(O)c(O)c2)oc2cc(O)cc(O)c12 — recorded IC50 = 400 nM
